These data points were gathered from patent US20160297884A1.

- targetEntity: T1, Human BCMA (human, UniProt Q02223 1-54, limits assumed)
- T1 construct: also called huBCMA; B-cell maturation antigen
- T1 sequence (looked up): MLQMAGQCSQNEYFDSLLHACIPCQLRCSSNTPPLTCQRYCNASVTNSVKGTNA
- assayText: SPR, IgG immobilised, human BCMA analyte
endpointLabel: Kd (nM)
Unit nM implied. Number only.

A selection of reference data follows.
| binder | Kd (nM) |
| --- | --- |
| COMBO_Rd4_6nM_C02 (antibody, V domains shown, IgG) VH: EVQLLESGGGLVQPGGSLRLSCAASGFTFSSYAMNWVRQAPGKGLEWVSAISDSGGFVYYADSVKGRFTISRDNSKNTLYLQMNSLRAEDTAVYYCARYWPMDSWGQGTLVTVSS VL: EIVLTQSPGTLSLSPGERATLSCRASQSVSSSYLAWYQQKPGQAPRLLMYDASIRATGIPDRFSGSGSGTDFTLTISRLEPEDFAVYYCQQYEFWPLTFGQGTKVEIK | 0.422 |
| COMBO_Rd4_0.6nM_C04 (antibody, V domains shown, IgG) VH: EVQLLESGGGLVQPGGSLRLSCAASGFTFSSYPMSWVRQAPGKGLEWVSAHIGSGGSTYYADSVKGRFTISRDNSKNTLYLQMNSLRAEDTAVYYCARYWPMDSWGQGTLVTVSS VL: EIVLTQSPGTLSLSPGERATLSCRASQSVSSTYLAWYQQKPGQAPRLLMYDASIRATGIPDRFSGSGSGTDFTLTISRLEPEDFAVYYCQQYQSWPLTFGQGTKVEIK | 0.015 |

As a next step, examine the binder that follows.
Ask: What measured Kd goes with COMBO_Rd4_0.6nM_C14 (antibody, V domains shown, IgG) VH: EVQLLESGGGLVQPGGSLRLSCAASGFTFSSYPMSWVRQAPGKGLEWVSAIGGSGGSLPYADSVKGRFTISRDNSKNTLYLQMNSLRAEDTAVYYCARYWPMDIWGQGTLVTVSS VL: EIVLTQSPGTLSLSPGERATLSCRASQSVSALYLAWYQQKPGQAPRLLMYDASIRATGIPDRFSGSGSGTDFTLTISRLEPEDFAVYYCQQYYGWPLTFGQGTKVEIK ?
Result: 0.038
